test system: MEK2; construct: gene MAP2K2; details: Compound Concentration (nM):1000;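 further: KINOMEscan scanMAX binding as percent activity remaining versus control; lower means stronger binding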
readout type: Percent Control (%)
The answer is to be given in %; state only the numeric part.

COc1cc(/C=N/Nc2ncnc3[nH]ncc23)ccc1O [GW578748X]	83
CC1=C(C(=O)Nc2ccc3[nH]ncc3c2)C(c2ccc3ccccc3c2)CC(=O)N1 (centres unmarked) [GSK270822A]	74
NS(=O)(=O)c1ccc(N/N=C2\C(=O)Nc3ccc(-c4cnco4)cc32)cc1 [GW276655]	92
COc1cc(C)c(N(C)C(=O)CN(C)C)cc1Nc1nc(Nc2cccc(F)c2C(N)=O)c2cc[nH]c2n1 [GSK2219385]	100
CN1CCN(C(=O)c2ccc(NC(=O)Nc3ccc(N(C)c4ccnc(Nc5ccc(CS(C)(=O)=O)cc5)n4)cc3)cc2)CC1.Cl [GW830263A]	40

[in] Data request, read-out Percent Control, for CC(C)COC(=O)c1ccc2c(c1)/C(=C/Nc1ccc(S(N)(=O)=O)cc1)C(=O)N2 [GW416981X]
[out] 92

[in] Do the same for Cl.O=C(Nc1ccc(Oc2ccc3[nH]c(NC(=O)c4ccccc4)nc3c2)cc1)Nc1cc(C(F)(F)F)ccc1F [GW709042A] please
[out] 98

[in] Do the same for CCn1c(-c2nonc2N)nc2c(C#CC(C)(C)O)nc(OCCNC)cc21.Cl [GSK949675] please
[out] 100

* * *

Reported Percent Control is given for each of the following compounds.
system: GAK; conditions: Compound Concentration (nM):1000
The answer is to be given in %; state only the numeric part.

NS(=O)(=O)c1ccc(N/N=C2\C(=O)Nc3ccc(C(=O)NCc4ccncc4)cc32)cc1 [GW300657X]	66
COc1cccc(-c2c[nH]c3c(N/N=C/c4ccncc4)ncnc23)c1 [GW814408X]	11
COc1cc2ncn(-c3cc(O[C@H](C)c4ccccc4Cl)c(C(N)=O)s3)c2cc1OC [GSK237701A]	17

Now let's try a different one.
[in] Data request, read-out Percent Control, for C/C(Nc1ccc(S(N)(=O)=O)cc1)=C1/C(=O)Nc2ccccc21 [GW335962X]
[out] 61

* * *

test system: EPHA3; settings: Compound Concentration (nM):1000
Assign labels as follows, please: true (1) for Percent Control below 80%; false (0) for Percent Control equal to or exceeding 80%.

Worked examples follow.
COc1ccccc1-c1cc(/C=C2\C(=O)Nc3ncc(Br)cc32)cc(Br)c1O [GW442130X]	false (0)
CC(C)COC(=O)c1ccc2c(c1)/C(=C/Nc1ccc(S(N)(=O)=O)cc1)C(=O)N2 [GW416981X]	false (0)
NS(=O)(=O)c1ccc(N/N=C2\C(=O)Nc3ccc(Cl)cc32)cc1 [GW280670X]	false (0)
COc1cc(N2CCN(C(C)C)CC2)ccc1Nc1nc(Nc2ccc(F)cc2C(=O)NC[C@@H](O)CO)c2cc[nH]c2n1 [GSK1392956A]	true (1)
Cl.O=S1CCN(Cc2ccc(-c3ccc4ncnc(Nc5ccc(OCc6ccccc6)c(F)c5)c4c3)o2)CC1 [GW576924A]	false (0)

Continue with the next compound.
[in] In plain terms, does Cc1cc(O)cc(C)c1/C=C/c1cncc(C(N)=O)c1 [GW435821X] come in under 80% for Percent Control?
[out] true (1)
